MIC overview
test system: Psdm. aerug. Walter; experiment: MIC, liquid medium test tube series dilution test; type: cell-based, Pseudomonas aerug.; conditions: 24 hours, 37°C
Your answer is read as units/ml, so omit the unit and give the number.

Recorded MIC, per entry:
| Compound | MIC [units/ml] |
| --- | --- |
| CN(C(=O)N[C@@H](C(=O)N[C@@H]1C(=O)N2[C@@H]1SC(C)(C)[C@@H]2C(=O)O)c1ccccc1)C(=O)C1CC=CCC1 (single isomer, unassigned) | 12.5 |
| CC1(C)S[C@@H]2[C@H](NC(=O)[C@H](N)c3ccccc3)C(=O)N2[C@H]1C(=O)O [Ampicillin, D(-)-α-Aminobenzylpenicillin, reference compound] | 200 |
| CN(C(=O)CCCCl)C(=O)N[C@@H](C(=O)N[C@@H]1C(=O)N2[C@@H]1SC(C)(C)[C@@H]2C(=O)O)c1ccccc1 [Example 88] | 50 |
| CCCCOC(=O)N(C)C(=O)N[C@@H](C(=O)N[C@@H]1C(=O)N2[C@@H]1SC(C)(C)[C@@H]2C(=O)O)c1ccccc1 [Example 12] | 200 |
| CN(C(=O)N[C@@H](C(=O)N[C@@H]1C(=O)N2[C@@H]1SC(C)(C)[C@@H]2C(=O)O)c1ccccc1)C(=O)c1ccccc1 | 25 |
| CC(=O)N(C(=O)N[C@@H](C(=O)N[C@@H]1C(=O)N2[C@@H]1SC(C)(C)[C@@H]2C(=O)O)c1ccccc1)c1ccccc1 | 200 |

Output MIC of CCCCCCCCCCCCCCCCCC(=O)N(C)C(=O)N[C@@H](C(=O)N[C@@H]1C(=O)N2[C@@H]1SC(C)(C)[C@@H]2C(=O)O)c1ccccc1 400

---

MIC overview
tested on: Psdm. aerug. Bonn; assay: MIC, liquid medium test tube series dilution test; type: cell-based, Pseudomonas aerug.; details: 24 hours, 37°C
Your answer is read as units/ml, so omit the unit and give the number.

Recorded MIC, per entry:
| Compound | Assay System | Measured |
| --- | --- | --- |
| CN(C(=O)N[C@@H](C(=O)N[C@@H]1C(=O)N2[C@@H]1SC(C)(C)[C@@H]2C(=O)O)c1ccccc1)C(=O)OC1CCCCC1 [Example 67] | Psdm. aerug. Bonn | 25 |
| C=CCN(C(C)=O)C(=O)N[C@@H](C(=O)N[C@@H]1C(=O)N2[C@@H]1SC(C)(C)[C@@H]2C(=O)O)c1ccccc1 [Example 1] | Psdm. aerug. Bonn | 400 |
| CN(C)C(=O)N(C)C(=O)N[C@@H](C(=O)N[C@@H]1C(=O)N2[C@@H]1SC(C)(C)[C@@H]2C(=O)O)c1ccccc1 | Psdm. aerug. Bonn | 100 |

Consider now this further compound.
Output MIC of CCN(CC)C(=O)N(C)C(=O)N[C@@H](C(=O)N[C@@H]1C(=O)N2[C@@H]1SC(C)(C)[C@@H]2C(=O)O)c1ccccc1 100

---

test system: Psdm. aerug. Walter; assay: MIC, liquid medium test tube series dilution test; format: cell-based, Pseudomonas aerug.; conditions: 24 hours, 37°C
MIC overview

| Molecule | Assay System | MIC |
| --- | --- | --- |
| C=CCN(C(C)=O)C(=O)N[C@@H](C(=O)N[C@@H]1C(=O)N2[C@@H]1SC(C)(C)[C@@H]2C(=O)O)c1ccccc1 [Example 86] | Psdm. aerug. Walter | 50 units/ml |

Output MIC of CCN(C(C)=O)C(=O)N[C@@H](C(=O)N[C@@H]1C(=O)N2[C@@H]1SC(C)(C)[C@@H]2C(=O)O)c1ccccc1 4-20 units/ml

Output MIC of Cc1ccc(C(NC(=O)N(C)C(=O)c2ccccc2)C(=O)N[C@@H]2C(=O)N3[C@@H]2SC(C)(C)[C@@H]3C(=O)O)cc1 (stereo partly drawn) 20-100 units/ml

---

tested on: Staph. aureus 1777 E; test: MIC, liquid medium test tube series dilution test; assay type: cell-based, Staphylococcus aureus; conditions: 24 hours, 37°C
Property: MIC (units/ml)
Your answer is read as units/ml, so omit the unit and give the number.

Recorded MIC, per entry:
| Compound | MIC (units/ml) |
| --- | --- |
| CN(C(=O)C=Cc1ccccc1)C(=O)N[C@@H](C(=O)N[C@@H]1C(=O)N2[C@@H]1SC(C)(C)[C@@H]2C(=O)O)c1ccccc1 [Example 63] | 200 |
| CC1(C)S[C@@H]2[C@H](NC(=O)[C@H](NC(=O)N3CCCCC3=O)c3ccccc3)C(=O)N2[C@H]1C(=O)O [Example 134] | 200 |
| CN(C(=O)N[C@@H](C(=O)N[C@@H]1C(=O)N2[C@@H]1SC(C)(C)[C@@H]2C(=O)O)c1ccccc1)C(=O)N1CCCCC1 [Example 123] | 25 |
| CCN(CC)C(=O)N(C)C(=O)N[C@@H](C(=O)N[C@@H]1C(=O)N2[C@@H]1SC(C)(C)[C@@H]2C(=O)O)c1ccccc1 [Example 126] | 100 |

Consider now this further compound.
Output MIC of CN(C(=O)N[C@@H](C(=O)N[C@@H]1C(=O)N2[C@@H]1SC(C)(C)[C@@H]2C(=O)O)c1ccccc1)C(=O)OC1CCCCC1 [Example 67] 400

---

Test system: E. coli 14
Experiment: MIC, liquid medium test tube series dilution test
Type: cell-based
Conditions: E. coli 14, 24 hours, 37°C
Protocol: The chemotherapeutic activity of the new penicillins was tested in vivo and in vitro. The in vitro inhibition values (MIC = minimum inhibition concentration (see Tables 1 and 2) were determined in a liquid medium in the test tube series dilution test, with readings being taken after 24 hours' incubation at 37°C. The MIC is indicated by the non-turbid test tube in the dilution series. A complete medium of the following composition was used as the nutrient medium: […]
MIC overview
Your answer is read as units/ml, so omit the unit and give the number.

Output MIC of CN(C(=O)CCC(F)(F)F)C(=O)N[C@@H](C(=O)N[C@@H]1C(=O)N2[C@@H]1SC(C)(C)[C@@H]2C(=O)O)c1ccccc1 1.56

Output MIC of COc1ccc(C(=O)N(C)C(=O)N[C@@H](C(=O)N[C@@H]2C(=O)N3[C@@H]2SC(C)(C)[C@@H]3C(=O)O)c2ccccc2)cc1[N+](=O)[O-] 3.12

---

system: E. coli C 165; assay: MIC, liquid medium test tube series dilution test; format: cell-based; details: E. coli C 165, 24 hours, 37°C
Property: MIC (units/ml)
Your answer is read as units/ml, so omit the unit and give the number.

Recorded MIC, per entry:
| Compound | MIC [units/ml] |
| --- | --- |
| CN(C(=O)CCCCl)C(=O)N[C@@H](C(=O)N[C@@H]1C(=O)N2[C@@H]1SC(C)(C)[C@@H]2C(=O)O)c1ccccc1 [Example 24] | 25 |
| CCCCOC(=O)N(C)C(=O)N[C@@H](C(=O)N[C@@H]1C(=O)N2[C@@H]1SC(C)(C)[C@@H]2C(=O)O)c1ccccc1 [Example 98] | 6.25 |
| C=CCN(C(C)=O)C(=O)N[C@@H](C(=O)N[C@@H]1C(=O)N2[C@@H]1SC(C)(C)[C@@H]2C(=O)O)c1ccccc1 [Example 86] | 25 |

Consider now this further compound.
Output MIC of Cc1ccc(C(NC(=O)N(C)C(=O)N(C)C)C(=O)N[C@@H]2C(=O)N3[C@@H]2SC(C)(C)[C@@H]3C(=O)O)cc1 (stereo partly drawn) [Example 119] 200

---

MIC overview
tested on: Staph. aureus 1777 E; assay: MIC, liquid medium test tube series dilution test; format: cell-based, Staphylococcus aureus; conditions: 24 hours, 37°C

| Molecule | Assay System | Measured |
| --- | --- | --- |
| CC1(C)S[C@@H]2[C@H](NC(=O)[C@H](NC(=O)N3CCNC3=O)c3ccccc3)C(=O)N2[C@H]1C(=O)O [Example 52] | Staph. aureus 1777 E | 200 units/ml |
| CCCN(C(C)=O)C(=O)N[C@@H](C(=O)N[C@@H]1C(=O)N2[C@@H]1SC(C)(C)[C@@H]2C(=O)O)c1ccccc1 [Example 115] | Staph. aureus 1777 E | 100-500 units/ml |

Consider now this further molecule.
Output MIC of CNC(=O)N(C)C(=O)N[C@@H](C(=O)N[C@@H]1C(=O)N2[C@@H]1SC(C)(C)[C@@H]2C(=O)O)c1ccccc1 [Example 110] 20-100 units/ml

---

system: Staph. aureus 133; test: Surviving mice after intraperitoneal infection and subcutaneous therapy; format: in vivo, white mice, CF1 strain; conditions: 2 × 200 units/mouse s.c., 5 days
Property: Number of surviving mice (%)
Your answer is read as %, so omit the unit and give the number.

| Compound | Number of surviving mice [%] |
| --- | --- |
| CN(C(=O)N[C@@H](C(=O)N[C@@H]1C(=O)N2[C@@H]1SC(C)(C)[C@@H]2C(=O)O)c1ccccc1)C(=O)C1CC=CCC1 (single isomer, unassigned) [Example 65] | 70 |
| CC(=O)N(C)C(=O)N[C@@H](C(=O)N[C@@H]1C(=O)N2[C@@H]1SC(C)(C)[C@@H]2C(=O)O)c1ccccc1 [Example 66A] | 70 |
| COc1ccc(C(=O)N(C)C(=O)N[C@@H](C(=O)N[C@@H]2C(=O)N3[C@@H]2SC(C)(C)[C@@H]3C(=O)O)c2ccccc2)cc1[N+](=O)[O-] [Example 83] | 70 |
| CC1(C)S[C@@H]2[C@H](NC(=O)[C@H](N)c3ccccc3)C(=O)N2[C@H]1C(=O)O [Ampicillin, D(-)-α-Aminobenzylpenicillin, reference compound] | 100 |
| CN(C(=O)N[C@@H](C(=O)N[C@@H]1C(=O)N2[C@@H]1SC(C)(C)[C@@H]2C(=O)O)c1ccccc1)C(=O)c1ccccc1 [Example 59] | 70 |

Consider now this further compound.
Give Staph. aureus 133 Number of surviving mice for the following compound: Cc1ccc(C(=O)N(C)C(=O)N[C@@H](C(=O)N[C@@H]2C(=O)N3[C@@H]2SC(C)(C)[C@@H]3C(=O)O)c2ccccc2)cc1 [Example 73] 40
